# ASSAY_TEXT: Permeability across human Caco-2 cell
# Assay type: ADME, cell-based
# REPORTED_CONDITIONS: read-out: permeability
READOUT_TYPE: Papp

[[record]]
molecule = "O[C@@H](CN1c2cccc(-c3cccc(OC(F)(F)F)c3)c2CC[C@@H]1c1cccc(OC(F)(F)F)c1)C(F)(F)F [TETRAHYDROQUINOLINE A]"
reported = "4.7 ×10⁻⁶ cm/s"


---

# ASSAY_TEXT: Oral bioavailability in Sprague-Dawley rat at 10 mg/kg
# Assay type: ADME, organism-based
# REPORTED_CONDITIONS: in vivo
READOUT_TYPE: bioavailability (%)

[[record]]
compound = "O[C@@H](CN1c2cccc(-c3cccc(OC(F)(F)F)c3)c2CC[C@@H]1c1cccc(OC(F)(F)F)c1)C(F)(F)F [TETRAHYDROQUINOLINE A]"
readout_type = "bioavailability"
reported = 31


Sourced from ChEMBL document CHEMBL1138445
